target: 5-HT3-C together with nicotinic ACh receptor subunits β1, β2 and β3 (Homo sapiens, UniProt Q8WXA8); construct: Characterization of the Function of Protein Encoded by p5HT3CR in Xenopus oocvtes; expressed in transfected cells; host or cells: Xenopus laevis oocytes injected with cRNA; assay: Two-electrode voltage clamp, oocytes injected with 5-HT3-C together with nicotinic ACh receptor subunits β1, β2 and β3; assay type: cell-based; conditions: >100 μM; 5-HT3-C with β1, β2 and β3 (0.2–0.25 ng); n=5;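 note: oocytes expressing the subunits for 2–14 days, voltage-clamped at −70 mV under continuous ND96 perfusion at room temperature, with water-injected oocytes serving as controls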
Sequence (Q8WXA8 28-447): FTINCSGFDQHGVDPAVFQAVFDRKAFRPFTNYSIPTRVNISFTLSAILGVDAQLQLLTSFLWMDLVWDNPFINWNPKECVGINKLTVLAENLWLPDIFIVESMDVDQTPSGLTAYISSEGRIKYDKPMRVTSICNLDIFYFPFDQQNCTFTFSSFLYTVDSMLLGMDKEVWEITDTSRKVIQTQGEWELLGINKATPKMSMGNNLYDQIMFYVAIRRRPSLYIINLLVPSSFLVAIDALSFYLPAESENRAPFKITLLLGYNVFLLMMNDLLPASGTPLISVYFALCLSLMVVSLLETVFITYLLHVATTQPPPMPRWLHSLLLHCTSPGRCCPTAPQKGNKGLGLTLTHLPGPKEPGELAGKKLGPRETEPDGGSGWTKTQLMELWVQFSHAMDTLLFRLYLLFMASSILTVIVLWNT
experimentalEndpoint: sensitivity of oocytes to neuroactive compound

{"recordSmiles": "N=C(N)NCCCCN", "valueMeasured": "insensitive"}
{"recordSmiles": "CC(=O)NCCc1c[nH]c2ccc(O)cc12", "valueMeasured": "insensitive"}
{"recordSmiles": "CC(=O)N[C@@H](CS)C(=O)O", "valueMeasured": "insensitive"}

---

target: human 5-HT3-C (Homo sapiens, UniProt Q8WXA8); construct: Characterization of the Function of Protein Encoded by p5HT3CR in Xenopus oocvtes; expressed in transfected cells; host or cells: Xenopus laevis oocytes injected with in vitro transcribed cRNA (pGEM HE); experiment: Two-electrode voltage clamp, Xenopus oocytes injected with 5-HT3-C cRNA alone; assay type: cell-based; conditions: >100 μM; only 5-HT3-C cRNA (33.5 ng); n=5
experimentalEndpoint: sensitivity of oocytes to neuroactive compound

Consider the reported sensitivity of oocytes to neuroactive compound for these compounds:
{"compound": "CC(=O)OCC[N+](C)(C)C", "studyTarget": "human 5-HT3-C (Homo sapiens, UniProt Q8WXA8)", "valueMeasured": "insensitive"}
{"compound": "NCC(=O)O", "studyTarget": "human 5-HT3-C (Homo sapiens, UniProt Q8WXA8)", "valueMeasured": "insensitive"}
{"compound": "NCCc1ccc(O)cc1", "studyTarget": "human 5-HT3-C (Homo sapiens, UniProt Q8WXA8)", "valueMeasured": "insensitive"}
{"compound": "NCCCC(=O)O", "studyTarget": "human 5-HT3-C (Homo sapiens, UniProt Q8WXA8)", "valueMeasured": "insensitive"}
{"compound": "O=C(O)Cc1c[nH]c2ccc(O)cc12 [5-hydroxyindolacetic acid]", "studyTarget": "human 5-HT3-C (Homo sapiens, UniProt Q8WXA8)", "valueMeasured": "insensitive"}
{"compound": "NC(=O)Cc1c[nH]c2ccc(O)cc12 [5-hydroxyindole 3-acetamide]", "studyTarget": "human 5-HT3-C (Homo sapiens, UniProt Q8WXA8)", "valueMeasured": "insensitive"}

Q) Which measured sensitivity of oocytes to neuroactive compound value corresponds to "N[C@@H](Cc1c[nH]c2ccccc12)C(=O)O" ?
A) insensitive

Q) Which measured sensitivity of oocytes to neuroactive compound value corresponds to NCCc1c[nH]c2ccc(O)cc12 [5-HT, 5-hydroxytryptamine] ?
A) insensitive

Q) Which measured sensitivity of oocytes to neuroactive compound value corresponds to "COc1ccc2[nH]cc(CCNC(C)=O)c2c1" ?
A) insensitive

Q) Which measured sensitivity of oocytes to neuroactive compound value corresponds to O=C(O)c1cc2cc(O)ccc2[nH]1 [5-hydroxyindole 2-carboxylic acid] ?
A) insensitive

Q) Which measured sensitivity of oocytes to neuroactive compound value corresponds to "N=C(N)NCCCCN" ?
A) insensitive

Q) Which measured sensitivity of oocytes to neuroactive compound value corresponds to N[C@@H](CCC(=O)O)C(=O)O [glutamate] ?
A) insensitive

Q) Which measured sensitivity of oocytes to neuroactive compound value corresponds to NC[C@H](O)c1ccc(O)c(O)c1 [norepinephrine] ?
A) insensitive

Q) Which measured sensitivity of oocytes to neuroactive compound value corresponds to COc1cc2c(CCNC(C)=O)c[nH]c2cc1O [6-hydroxymelatonin] ?
A) insensitive

Q) Which measured sensitivity of oocytes to neuroactive compound value corresponds to "NCCC(=O)O" ?
A) insensitive

Q) Which measured sensitivity of oocytes to neuroactive compound value corresponds to "CC(=O)N[C@@H](CS)C(=O)O" ?
A) insensitive

Q) Which measured sensitivity of oocytes to neuroactive compound value corresponds to "N[C@@H]1CONC1=O" ?
A) insensitive

Data origin, for the record: patent US7109296B2
